Experiment: CCTE_Simmons_CellTiterGLO_HEK293T: Viability Assessment in CCTE's Assays for Thyroperoxidase (TPO) Inhibition, Simmons Lab (AID 2283665);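 for AC50: cells exposed to compound for 24 h before readout; actives reduce ATP signal below DMSO vehicle meaning cytotoxicity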
Results filed as inconclusive are left out. Calls of active or inactive are those of the source. Rule for the calls: active = hit-call score of the fitted dose curve at least 0.9, where 1 is the maximum; inconclusive = response in the unintended direction; inactive = score below 0.9.
Readout label: AC50

Molecule | Result
Nc1ccc(Cl)cc1 | inactive
CCCCc1ccc(O)cc1 | 53.6 µM (active)
CCC(C)(C)c1ccc(O)cc1 | 28.1 µM (active)
CC(C)(C)c1ccc(O)cc1 | 57.4 µM (active)
Cc1cccc(N)c1 | inactive
c1ccc(OP(Oc2ccccc2)Oc2ccccc2)cc1 | inactive
CCOP(=S)(OCC)SCSCC | 13.6 µM (active)
O=c1ssc(Cl)c1Cl | 53.8 µM (active)

query: Look at this molecule and give its reported AC50. O=S1(=O)OCC2C(CO1)C1(Cl)C(Cl)=C(Cl)C2(Cl)C1(Cl)Cl (stereo unspecified)
result: 28.5 µM (active)

query: Look at this molecule and give its reported AC50. Nc1cc2c3c(c1)C(c1ccccc1)=N[C@@H](NC(=O)c1cccnc1)C(=O)N3CC2
result: inactive

query: Look at this molecule and give its reported AC50. Nc1ccc2ccccc2c1
result: inactive
